Values from patent US20260258115A1

ASSAYED_TARGET: T1, RSV prefusion F (preF), subtype B (respiratory syncytial virus subtype B)
T1 construct: also called Prefusion subtype B
RUN_DESCRIPTION: BLI, IgG
Let's look at some binders and their measured Kd.
PROPERTY: Kd (nM)

binder="ADI-19430 (antibody, V domains shown, full-length IgG) VH: QVQLVQSGAEVKKPGSSVKVSCKASGGTFSSYTISWVRQAPGQGLEWMGRIIPILGIANYAQKFQGRVTITADKSTSTAYMELSSLRSEDTAVYYCARDGGPYYYDSSGYYRLDYWGQGTLVTVSS VL: DIRMTQSPLSLPVTLGQPASISCRSSQSLVYSDGNTYLNWFQQRPGQSPRRLIYKVSNRDSGVPDRFSGSGSGTDFTLKISRVEAEDVGVYYCMQGTHWTYTFGQGTKLEIK" result_unit=nM data_value=16.8
binder="ADI-14356 (antibody, V domains shown, full-length IgG; also called Ab 24) VH: QVQLQESGAGLLKPSETLSLTCAVYGGSFSGYYWSWIRQPPGKGLEWIGEINHSGSTNYNPSLKSRVTISVDTSKNQFSLKLSSVTAADTAVYYCARDQRIVVVGAATEPYYYYYGMDVWGQGTTVTVSS VL: QPVLTQPPSVSVSPGQTARITCSGDALPKQYAYWYQQKPGQAPVLVIYKDSERPSGIPERFSGSSSGTTVTLTISGVQAEDEADYYCQSADSSGTYRVFGGGTKLTVL" result_unit=nM data_value=13
binder="ADI-14383 (antibody, V domains shown, full-length IgG; also called Ab 51) VH: QITLKESGPTLVKPTQTLTLTCTFSGFSLSTSGVGVGWIRQPPGKALEWLALIYWDEDKRYSPSLKTRLTITKDTSRNQVKLTMTNMDPVDTATYYCAHQYYDILTGYPSPGAFDIWGQGTTVTVSS VL: QPVLTQPASVSGSPGQSITISCTGTSSDVVSYNLVSWFQQHPGKAPKLMIYEVTRRPSGVSNRFSGSKSGNTASLTISGLQAEDEADYYCCAYTGTPVVFGGGTKLTVL" result_unit=nM data_value=1.75
